A compilation of pKi values for Interstitial collagenase (Homo sapiens, UniProt P03956) from the published literature.
Scale note: pKi = -log10(concentration in M).

Recorded results for 10 compounds are shown here.
O=C(Nc1nnc(S)s1)N[C@@H](Cc1ccc(F)cc1)C(=O)N1CCN(c2ccccn2)CC1; 5.74
CC(C)C[C@H](CC(=O)NO)C(=O)N[C@@H](Cc1c[nH]c2ccccc12)C(=O)NCCCCOCc1ccccc1; 8.70
CC(C)C[C@H](NC(=O)[C@H](CCc1ccc(F)cc1)N[C@H](C)C(=O)O)C(=O)Nc1ccccc1; 6.06
CC(C)C[C@@H](C(=O)N[C@H](C(=O)Nc1nccs1)C(C)C)[C@H](C)N(O)C=O; 7.44
CNC(=O)[C@@H](NC(=O)[C@H](CCCCOc1cccc(C)c1)CC(=O)NO)C(C)(C)C; 7.80
CNC(=O)[C@H](Cc1ccccc1)NC(=O)[C@@H](CC(C)C)S[C@H]1CN(C(=O)CCCCCN2C(=O)c3ccccc3C2=O)C[C@H]1S (mixture of isomers); 7.28
CNC(=O)[C@H](Cc1ccc(F)cc1)NC(=O)Nc1nnc(S)s1; 5.05
C[C@H](NC(=O)[C@H](Cc1ccccc1)NS(=O)(=O)c1ccc([N+](=O)[O-])cc1)C(=O)Nc1n[nH]c(=S)s1; 4.82
COc1ccc2c(c1)NCCN([C@@H](C(=O)NO)C(C)C)S2(=O)=O; 6.14
O=C(Nc1nnc(S)s1)N[C@@H](Cc1ccccc1)C(=O)N1CCN(Cc2ccccc2)CC1; 4.54

// field: pKi; key: O=C(C[C@@H](CCc1ccccc1)C(=O)N[C@@H](CC1CCCCC1)C(=O)NCCc1ccccc1)NO ; value = 6.21

Query O=C(CNC(=O)c1ccc(C(F)(F)F)cc1)NO yields pKi of 8.52

Noted for C[C@H](C(=O)NO)N1CCNc2cc(Oc3ccc(-c4ccccc4)cc3)ccc2S1(=O)=O : its pKi reads 5.69

# compound COc1cccc(C[C@H](CC(=O)NO)C(=O)N[C@H]2c3ccccc3C[C@H]2O)c1 ; its pKi = 4.02

Item: CC(C)C[C@H](NC(=O)[C@H](CCc1ccc(C(F)(F)F)cc1)N[C@H](C)C(=O)O)C(=O)Nc1ccccc1 | pKi: 5.29

The value of pKi measured for the compound Cc1ccc(CCC[C@H](CC(=O)NO)C(=O)N[C@@H](CC2CCCCC2)C(=O)NCCc2ccccc2)cc1 turned out to be 6.04

###

Collected set of pKi measured with UniProt P03956 across studies.
// pKi: -log10(molar conc.)

Check out these entries, answers already filled in.
O=C(C[C@@H](CCCc1ccccc1)C(=O)N[C@@H](CC1CCCCC1)C(=O)NCCc1ccc(S(=O)(=O)O)cc1)NO; 6.03
Cc1cc(C)cc(COc2ccc([C@]3(C)CCN([C@H](C)C(=O)NO)C3=O)cc2)c1; 5.32
CCSCCNC(=O)[C@H](Cc1c[nH]c2ccccc12)NC(=O)[C@@H](CC(=O)NO)CC(C)C; 8.52
COc1ccc(S(=O)(=O)N(CCO)CC(=O)NO)cc1; 6.89
Cc1ccc(CCC[C@H](CC(=O)NO)C(=O)N[C@@H](CC2CCCCC2)C(=O)NCCC(=O)NCCNS(=O)(=O)N2CCOCC2)cc1; 6.41

// field: pKi; key: CNC(=O)[C@@H]1CCCNCCCCO[C@H](C(=O)NO)[C@@H](CCCc2ccccc2)C(=O)N1 ; value = 6.30

Lab book: pKi of CNC(=O)[C@H](COCc1ccccc1)NC(=O)Nc1nnc(S)s1 noted as 4.28

CC(C)C[C@H](CC(=O)NO)C(=O)N[C@@H](CC(C)C)C(=O)N[C@@H](Cc1ccccc1)C(N)=O has a reported pKi of 6.52

Record summary for O=C(CCC(=O)c1ccc(C(F)(F)F)cc1)NO : reported pKi = 8.52

###

Note to self: these compounds have Ki reported for Interstitial collagenase (Homo sapiens, UniProt P03956) in various publications.
- Experimental System: Interstitial collagenase (Homo sapiens, UniProt P03956)
- Sequence (P03956 whole entry): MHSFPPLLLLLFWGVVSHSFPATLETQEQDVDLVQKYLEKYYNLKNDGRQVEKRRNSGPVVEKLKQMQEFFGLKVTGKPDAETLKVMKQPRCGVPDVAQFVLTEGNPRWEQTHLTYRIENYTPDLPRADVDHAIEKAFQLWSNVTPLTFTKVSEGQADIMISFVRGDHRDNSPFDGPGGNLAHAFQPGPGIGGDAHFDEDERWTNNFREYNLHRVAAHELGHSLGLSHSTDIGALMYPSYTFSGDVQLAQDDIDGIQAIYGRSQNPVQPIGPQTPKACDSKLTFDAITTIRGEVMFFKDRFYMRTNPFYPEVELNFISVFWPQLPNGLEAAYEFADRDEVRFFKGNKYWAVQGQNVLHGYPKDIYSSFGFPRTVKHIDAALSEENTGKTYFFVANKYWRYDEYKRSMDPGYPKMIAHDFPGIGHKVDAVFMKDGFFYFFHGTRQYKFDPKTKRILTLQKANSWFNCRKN
Please give a number only; it is taken to be in nM.

O=C(Nc1nnc(S)s1)N[C@@H](Cc1ccccc1)C(=O)N1CCCC1; 20000
COc1ccc(S(=O)(=O)C(CCCCc2ccccc2)C(C)C(=O)NO)cc1 (centres undefined); 2000
CNC(=O)[C@@H](NC(=O)[C@H](CC(C)C)[C@H](CO)C(=O)NO)C(C)(C)C; 0.6
COc1ccc(C(=O)CCC(=O)NO)cc1; 33
CNC(=O)[C@H](CCCNC(=O)N1CCOCC1)NC(=O)[C@H](CCCc1ccccc1)[C@@](C)(O)C(=O)NO; 53
CC(C)C[C@H](NC(=O)[C@H](CCc1ccc(O)cc1)N[C@H](C)C(=O)O)C(=O)Nc1ccccc1; 1000
CNC(=O)[C@@H](NC(=O)[C@H](c1ccc(C)cc1)[C@H](CO)C(=O)NO)C(C)(C)C; 2
CNC(=O)[C@H](Cc1ccc(OC)cc1)NS(=O)(=O)C(CC(=O)NO)CC(C)C (some centres undefined); 770

Looking up CNC(=O)[C@H](Cc1ccc(OC)cc1)NC(=O)[C@@H](CC(=O)O)CC(C)C , I see its Ki listed as 336

Ki measured on C[C@H](C(=O)NO)N1CCNc2cc(-c3ccccc3)ccc2S1(=O)=O = 272

###

Sequence of the target: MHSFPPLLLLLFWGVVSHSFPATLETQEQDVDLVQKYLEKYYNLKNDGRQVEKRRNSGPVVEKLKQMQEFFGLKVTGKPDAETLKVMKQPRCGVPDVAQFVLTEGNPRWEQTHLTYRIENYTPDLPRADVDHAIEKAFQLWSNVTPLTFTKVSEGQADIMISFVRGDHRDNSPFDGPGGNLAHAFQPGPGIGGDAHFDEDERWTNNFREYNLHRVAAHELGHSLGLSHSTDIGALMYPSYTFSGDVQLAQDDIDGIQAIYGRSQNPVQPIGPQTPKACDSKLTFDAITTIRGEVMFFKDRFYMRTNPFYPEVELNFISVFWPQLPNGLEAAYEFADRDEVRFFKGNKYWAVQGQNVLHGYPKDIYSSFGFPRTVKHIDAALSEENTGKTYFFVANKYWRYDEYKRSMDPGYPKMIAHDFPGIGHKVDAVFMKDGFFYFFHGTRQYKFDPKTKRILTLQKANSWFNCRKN
Literature-derived Ki for the protein given by its sequence follows.

The cases that follow already have their Ki on record.
CCN1CCC[C@H](C(=O)NO)[C@H]1C(=O)Nc1ccc(OCc2cc(C)nc3ccccc23)cc1; > 4.95 µM
Cc1cc(COc2ccc(NC(=O)[C@H]3CCN(C(C)C)C[C@@H]3C(=O)NO)cc2)c2ccccc2n1; > 4.95 µM
CC(C)C[C@H](NC(=O)[C@H](CCc1ccccc1)CP(=O)(O)CCCCNC(=O)[C@H]1CCCN1C(=O)c1ccccc1)C(=O)Nc1ccccc1; ≥ 10 µM

Item: O=C(Nc1nnc(S)s1)N[C@@H](Cc1c(F)c(F)c(F)c(F)c1F)C(=O)N1CCN(c2ccccn2)CC1 | Ki: 0.77 µM

###

Target chain: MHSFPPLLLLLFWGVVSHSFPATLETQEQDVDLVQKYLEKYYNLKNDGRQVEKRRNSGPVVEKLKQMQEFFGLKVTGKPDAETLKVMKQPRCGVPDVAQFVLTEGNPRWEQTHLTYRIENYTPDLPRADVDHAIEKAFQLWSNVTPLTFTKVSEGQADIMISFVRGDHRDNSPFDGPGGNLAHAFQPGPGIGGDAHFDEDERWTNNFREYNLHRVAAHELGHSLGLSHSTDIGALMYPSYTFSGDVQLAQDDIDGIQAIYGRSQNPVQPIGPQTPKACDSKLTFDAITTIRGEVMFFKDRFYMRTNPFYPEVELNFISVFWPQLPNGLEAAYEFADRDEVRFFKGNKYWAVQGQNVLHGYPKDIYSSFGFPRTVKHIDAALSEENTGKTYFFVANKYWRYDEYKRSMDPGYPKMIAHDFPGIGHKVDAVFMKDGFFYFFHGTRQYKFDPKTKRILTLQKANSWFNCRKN
Dear all, I have gathered published Ki values for the protein given by its sequence; the list follows.

Answered examples (3):
CC(C)(C)c1nc2ccccc2n1Cc1ccc(C(=O)N[C@@H]2C[C@@]3(CCCO3)C[C@@H]2C(=O)NO)cc1; > 4950 nM
Cc1nc2ccccc2n1Cc1ccc(C(=O)N[C@@H]2CNC[C@@H]2C(=O)NO)cc1; > 2130 nM
Cc1cc(COc2ccc(S(=O)(=O)CC3(CC(=O)NO)CCN(C)C3)cc2)c2ccccc2n1 (centres undefined); > 4900 nM

Sure, the documented Ki for CNC(=O)[C@@H]1CCCc2ccc(cc2)OCCC[C@H](C(=O)NO)[C@@H](CC(C)C)C(=O)N1 is 1.8 nM
